Test system: CT DNA
Experiment: Study of the DNA-interaction by cyclic voltammetry
Format: binding, calf
Details: M(II)/M(I), 1:2 DMSO/buffer, presence of CT DNA
REPORTED_METRIC: Epc(b), cathodic potential (mV)
Answers are plain numbers, in mV.

Use these answered entries as a reference point.
CN1CCN(c2c(F)cc3c(=O)c(C(=O)[O-])cn(CCF)c3c2F)CC1.CN1CCN(c2c(F)cc3c(=O)c(C(=O)[O-])cn(CCF)c3c2F)CC1.[Ni+2].c1ccc(Nc2ccccn2)nc1 [complex 18, [Ni(flrx)2(bipyam)]] : −689
CN1CCN(c2c(F)cc3c(=O)c(C(=O)[O-])cn(CCF)c3c2F)CC1.CN1CCN(c2c(F)cc3c(=O)c(C(=O)[O-])cn(CCF)c3c2F)CC1.[Co+2].c1ccc(-c2ccccn2)nc1 [complex 15, [Co(flrx)2(bipy)]] : −695
CN1CCN(c2c(F)cc3c(=O)c(C(=O)[O-])cn(CCF)c3c2F)CC1.CN1CCN(c2c(F)cc3c(=O)c(C(=O)[O-])cn(CCF)c3c2F)CC1.[Co+2].c1cnc2c(c1)ccc1cccnc12 [complex 17, [Co(flrx)2(phen)]] : −689
CN1CCN(c2c(F)cc3c(=O)c(C(=O)[O-])cn(CCF)c3c2F)CC1.[Cl-].[Cu+2].c1ccc(Nc2ccccn2)nc1 [complex 7, [Cu(flrx)(bipyam)Cl]] : −710

Could you now look at the following compound, please?
State its Epc(b), cathodic potential: CN1CCN(c2c(F)cc3c(=O)c(C(=O)[O-])cn(CCF)c3c2F)CC1.CN1CCN(c2c(F)cc3c(=O)c(C(=O)[O-])cn(CCF)c3c2F)CC1.[Ni+2].c1cnc2c(c1)ccc1cccnc12 [complex 19, [Ni(flrx)2(phen)]]
−718

###

Tested on: Bacillus subtilis ATCC 6633
Test: Antimicrobial activity, MIC determination
Format: cell-based
Details: B. subtilis; 24-h incubation, 37°C
Procedure: The in vitro antimicrobial activity of the compounds was evaluated by determining the minimum inhibitory concentration (MIC) against the Gram-positive microorganisms Staphylococcus aureus ATCC 6538 (S. aureus) and Bacillus subtilis ATCC 6633 (B. subtilis) and the Gram-negative microorganism Xanthomonas campestris ATCC 1395 (X. campestris). […]
REPORTED_METRIC: MIC (values in parentheses) (µM)
Answers are plain numbers, in µM.

CN1CCN(c2c(F)cc3c(=O)c(C(=O)[O-])cn(CCF)c3c2F)CC1.CN1CCN(c2c(F)cc3c(=O)c(C(=O)[O-])cn(CCF)c3c2F)CC1.[Co+2].c1ccc(-c2ccccn2)nc1 [complex 15, [Co(flrx)2(bipy)]] : 8.4
CN1CCN(c2c(F)cc3c(=O)c(C(=O)[O-])cn(CCF)c3c2F)CC1.CN1CCN(c2c(F)cc3c(=O)c(C(=O)[O-])cn(CCF)c3c2F)CC1.[Co+2].c1cnc2c(c1)ccc1cccnc12 [complex 17, [Co(flrx)2(phen)]] : 8.0
CN1CCN(c2c(F)cc3c(=O)c(C(=O)[O-])cn(CCF)c3c2F)CC1.CN1CCN(c2c(F)cc3c(=O)c(C(=O)[O-])cn(CCF)c3c2F)CC1.[Mn+2].c1ccc(-c2ccccn2)nc1 [complex 9, [Mn(flrx)2(bipy)]] : 8.4
CN1CCN(c2c(F)cc3c(=O)c(C(=O)[O-])cn(CCF)c3c2F)CC1.CN1CCN(c2c(F)cc3c(=O)c(C(=O)[O-])cn(CCF)c3c2F)CC1.[Mn+2].c1cnc2c(c1)ccc1cccnc12 [complex 11, [Mn(flrx)2(phen)]] : 8.2

Return reported MIC (values in parentheses) values for all items listed beneath this line.
1. CN1CCN(c2c(F)cc3c(=O)c(C(=O)[O-])cn(CCF)c3c2F)CC1.CN1CCN(c2c(F)cc3c(=O)c(C(=O)[O-])cn(CCF)c3c2F)CC1.[Zn+2].c1ccc(Nc2ccccn2)nc1 [complex 13, [Zn(flrx)2(bipyam)]]
2. CN1CCN(c2c(F)cc3c(=O)c(C(=O)[O-])cn(CCF)c3c2F)CC1.CN1CCN(c2c(F)cc3c(=O)c(C(=O)[O-])cn(CCF)c3c2F)CC1.CO.CO.[Co+2] [complex 4, [Co(flrx)2(MeOH)2]]
3. CN1CCN(c2c(F)cc3c(=O)c(C(=O)[O-])cn(CCF)c3c2F)CC1.CN1CCN(c2c(F)cc3c(=O)c(C(=O)[O-])cn(CCF)c3c2F)CC1.[Zn+2].c1ccc(-c2ccccn2)nc1 [complex 12, [Zn(flrx)2(bipy)]]

1: 4.1; 2: 9.3; 3: 8.3

###

Tested on: CT DNA
Experiment: Study of the DNA-interaction by cyclic voltammetry
Type: binding, calf
Conditions: M(II)/M(I), 1:2 DMSO/buffer, presence of CT DNA
Answer each item with its documented Epa(b), anodic potential.
Give bare numbers, in mV.

CN1CCN(c2c(F)cc3c(=O)c(C(=O)[O-])cn(CCF)c3c2F)CC1.CN1CCN(c2c(F)cc3c(=O)c(C(=O)[O-])cn(CCF)c3c2F)CC1.[Co+2].c1cnc2c(c1)ccc1cccnc12 [complex 17, [Co(flrx)2(phen)]] : −518
CN1CCN(c2c(F)cc3c(=O)c(C(=O)[O-])cn(CCF)c3c2F)CC1.[Cl-].[Cu+2].c1ccc(Nc2ccccn2)nc1 [complex 7, [Cu(flrx)(bipyam)Cl]] : −300
CN1CCN(c2c(F)cc3c(=O)c(C(=O)[O-])cn(CCF)c3c2F)CC1.[Cl-].[Cu+2].c1ccc(-c2ccccn2)nc1 [complex 6, [Cu(flrx)(bipy)Cl]] : −323
CN1CCN(c2c(F)cc3c(=O)c(C(=O)[O-])cn(CCF)c3c2F)CC1.CN1CCN(c2c(F)cc3c(=O)c(C(=O)[O-])cn(CCF)c3c2F)CC1.[Mn+2].c1cnc2c(c1)ccc1cccnc12 [complex 11, [Mn(flrx)2(phen)]] : −499

Return reported Epa(b), anodic potential values for all items listed beneath this line.
1. CN1CCN(c2c(F)cc3c(=O)c(C(=O)[O-])cn(CCF)c3c2F)CC1.CN1CCN(c2c(F)cc3c(=O)c(C(=O)[O-])cn(CCF)c3c2F)CC1.CO.CO.[Ni+2] [complex 5, [Ni(flrx)2(MeOH)2]]
2. CN1CCN(c2c(F)cc3c(=O)c(C(=O)[O-])cn(CCF)c3c2F)CC1.CN1CCN(c2c(F)cc3c(=O)c(C(=O)[O-])cn(CCF)c3c2F)CC1.[Ni+2].c1ccc(Nc2ccccn2)nc1 [complex 18, [Ni(flrx)2(bipyam)]]
3. CN1CCN(c2c(F)cc3c(=O)c(C(=O)[O-])cn(CCF)c3c2F)CC1.CN1CCN(c2c(F)cc3c(=O)c(C(=O)[O-])cn(CCF)c3c2F)CC1.[Mn+2].c1ccc(-c2ccccn2)nc1 [complex 9, [Mn(flrx)2(bipy)]]
4. CN1CCN(c2c(F)cc3c(=O)c(C(=O)[O-])cn(CCF)c3c2F)CC1.CN1CCN(c2c(F)cc3c(=O)c(C(=O)[O-])cn(CCF)c3c2F)CC1.O.O.[Mn+2] [complex 2, [Mn(flrx)2(H2O)2]]
5. CN1CCN(c2c(F)cc3c(=O)c(C(=O)[O-])cn(CCF)c3c2F)CC1.CN1CCN(c2c(F)cc3c(=O)c(C(=O)[O-])cn(CCF)c3c2F)CC1.CO.CO.[Co+2] [complex 4, [Co(flrx)2(MeOH)2]]

1. −501
2. −512
3. −495
4. −466
5. −455

###

Target: bovine serum albumin (BSA) (Bos taurus)
Construct: purchased
Sequence (P02769 25-607): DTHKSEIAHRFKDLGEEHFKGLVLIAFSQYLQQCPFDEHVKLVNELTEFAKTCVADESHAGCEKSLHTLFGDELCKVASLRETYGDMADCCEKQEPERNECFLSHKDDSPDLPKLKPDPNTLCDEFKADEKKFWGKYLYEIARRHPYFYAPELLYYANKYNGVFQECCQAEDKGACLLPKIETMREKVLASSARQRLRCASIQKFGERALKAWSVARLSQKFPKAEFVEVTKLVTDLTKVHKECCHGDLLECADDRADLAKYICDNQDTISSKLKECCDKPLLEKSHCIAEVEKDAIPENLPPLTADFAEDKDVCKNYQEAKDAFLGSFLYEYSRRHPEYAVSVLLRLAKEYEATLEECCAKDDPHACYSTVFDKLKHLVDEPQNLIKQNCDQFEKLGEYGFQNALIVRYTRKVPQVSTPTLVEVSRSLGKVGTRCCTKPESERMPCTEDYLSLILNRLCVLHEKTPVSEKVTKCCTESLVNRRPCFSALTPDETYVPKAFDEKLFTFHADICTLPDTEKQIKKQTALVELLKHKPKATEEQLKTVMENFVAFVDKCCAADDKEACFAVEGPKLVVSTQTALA
Test: Albumin binding by tryptophan fluorescence emission quenching
Settings: λem,max = 342 nm, final value of titration (Figure S11)
Answer each item with its documented BSA fluorescence, % of the initial fluorescence intensity (I/Io).
Give bare numbers, in %.

CN1CCN(c2c(F)cc3c(=O)c(C(=O)[O-])cn(CCF)c3c2F)CC1.CN1CCN(c2c(F)cc3c(=O)c(C(=O)[O-])cn(CCF)c3c2F)CC1.[Co+2].c1ccc(-c2ccccn2)nc1 [complex 15, [Co(flrx)2(bipy)]] : 9.2
CN1CCN(c2c(F)cc3c(=O)c(C(=O)[O-])cn(CCF)c3c2F)CC1.CN1CCN(c2c(F)cc3c(=O)c(C(=O)[O-])cn(CCF)c3c2F)CC1.CO.CO.[Zn+2] [complex 3, [Zn(flrx)2(MeOH)2]] : 10.8
CN1CCN(c2c(F)cc3c(=O)c(C(=O)[O-])cn(CCF)c3c2F)CC1.CN1CCN(c2c(F)cc3c(=O)c(C(=O)[O-])cn(CCF)c3c2F)CC1.[Co+2].c1ccc(Nc2ccccn2)nc1 [complex 16, [Co(flrx)2(bipyam)]] : 22.2
CN1CCN(c2c(F)cc3c(=O)c(C(=O)[O-])cn(CCF)c3c2F)CC1.CN1CCN(c2c(F)cc3c(=O)c(C(=O)[O-])cn(CCF)c3c2F)CC1.[Mn+2].c1ccc(-c2ccccn2)nc1 [complex 9, [Mn(flrx)2(bipy)]] : 18.0
CN1CCN(c2c(F)cc3c(=O)c(C(=O)[O-])cn(CCF)c3c2F)CC1.CN1CCN(c2c(F)cc3c(=O)c(C(=O)[O-])cn(CCF)c3c2F)CC1.[Mn+2].c1cnc2c(c1)ccc1cccnc12 [complex 11, [Mn(flrx)2(phen)]] : 25.2

Return reported BSA fluorescence, % of the initial fluorescence intensity (I/Io) values for all items listed beneath this line.
1. CN1CCN(c2c(F)cc3c(=O)c(C(=O)[O-])cn(CCF)c3c2F)CC1.CN1CCN(c2c(F)cc3c(=O)c(C(=O)[O-])cn(CCF)c3c2F)CC1.[Zn+2].c1cnc2c(c1)ccc1cccnc12 [complex 14, [Zn(flrx)2(phen)]]
2. CN1CCN(c2c(F)cc3c(=O)c(C(=O)[O-])cn(CCF)c3c2F)CC1.[Cl-].[Cu+2].c1ccc(-c2ccccn2)nc1 [complex 6, [Cu(flrx)(bipy)Cl]]
3. CN1CCN(c2c(F)cc3c(=O)c(C(=O)[O-])cn(CCF)c3c2F)CC1.CN1CCN(c2c(F)cc3c(=O)c(C(=O)[O-])cn(CCF)c3c2F)CC1.[Cu+2] [complex 1, [Cu(flrx)2]]
4. CN1CCN(c2c(F)cc3c(=O)c(C(=O)[O-])cn(CCF)c3c2F)CC1.CN1CCN(c2c(F)cc3c(=O)c(C(=O)[O-])cn(CCF)c3c2F)CC1.CO.CO.[Co+2] [complex 4, [Co(flrx)2(MeOH)2]]
5. CN1CCN(c2c(F)cc3c(=O)c(C(=O)[O-])cn(CCF)c3c2F)CC1.CN1CCN(c2c(F)cc3c(=O)c(C(=O)[O-])cn(CCF)c3c2F)CC1.O.O.[Mn+2] [complex 2, [Mn(flrx)2(H2O)2]]
6. CN1CCN(c2c(F)cc3c(=O)c(C(=O)[O-])cn(CCF)c3c2F)CC1.[Cl-].[Cu+2].c1cnc2c(c1)ccc1cccnc12 [complex 8, [Cu(flrx)(phen)Cl]]
7. CN1CCN(c2c(F)cc3c(=O)c(C(=O)[O-])cn(CCF)c3c2F)CC1.CN1CCN(c2c(F)cc3c(=O)c(C(=O)[O-])cn(CCF)c3c2F)CC1.[Zn+2].c1ccc(Nc2ccccn2)nc1 [complex 13, [Zn(flrx)2(bipyam)]]
8. CN1CCN(c2c(F)cc3c(=O)c(C(=O)[O-])cn(CCF)c3c2F)CC1.CN1CCN(c2c(F)cc3c(=O)c(C(=O)[O-])cn(CCF)c3c2F)CC1.[Ni+2].c1ccc(Nc2ccccn2)nc1 [complex 18, [Ni(flrx)2(bipyam)]]

1. 25.8
2. 25.7
3. 17.3
4. 26.3
5. 11.1
6. 34.4
7. 14.6
8. 25.2

Return reported BSA fluorescence, % of the initial fluorescence intensity (I/Io) values for all items listed beneath this line.
1. CN1CCN(c2c(F)cc3c(=O)c(C(=O)[O-])cn(CCF)c3c2F)CC1.CN1CCN(c2c(F)cc3c(=O)c(C(=O)[O-])cn(CCF)c3c2F)CC1.[Mn+2].c1ccc(Nc2ccccn2)nc1 [complex 10, [Mn(flrx)2(bipyam)]]
2. CN1CCN(c2c(F)cc3c(=O)c(C(=O)[O-])cn(CCF)c3c2F)CC1.CN1CCN(c2c(F)cc3c(=O)c(C(=O)[O-])cn(CCF)c3c2F)CC1.[Zn+2].c1ccc(-c2ccccn2)nc1 [complex 12, [Zn(flrx)2(bipy)]]

1: 31.6; 2: 14.1
